- Tested on: A498 renal
- procedure_details: NCI tumour cell line growth inhibition, 48 h
Where a SMILES comes first, the peptide text is derived from it.
Answer each item with its documented TGI.

molecule: CCCCCCCCCCCCCCCC(=O)OCC1OC(OC)C2NP(=O)(N(CCCl)CCCl)OC1C2O (stereo unspecified)
TGI: 34.7 µM
--
molecule: CC(=O)ON1C(=O)c2cccc3cccc(c23)C1=O
TGI: 71.5 µM
--
molecule: Cc1sc(C)c2c1C(=O)CC2N (stereo unspecified)
TGI: > 100 µM
--
molecule: CC1(C)C(=O)/C=C\C(=O)C(C)(C)C(=O)/C=C\C(=O)C(C)(C)C(=O)/C=C\C(=O)C(C)(C)C(=O)/C=C\C1=O
TGI: > 100 µM
--
molecule: CCC(C)C1NC(=O)C2CCCN2C(=O)CNC(=O)C(C)NC(=O)C(Cc2ccccc2)NC(=O)C(C(C)C)NC1=O (stereo unspecified) (cyclo(GPIVFA); configuration not given here)
TGI: > 100 µM

Provide the reported TGI of each entry below, same order.
1. COc1cc(-c2n/c(=C\c3c(O)[nH]c4cc(Cl)ccc34)cc3c2=Nc2ccccc2-3)cc(OC)c1OC
2. COc1cc(Nc2nnc3n2S(=O)(=O)c2cc(C)c(Cl)cc2S3)cc(OC)c1
3. N=C(N)c1ccc(NCCOCCNc2ccc(C(=N)N)cc2)cc1
4. CCCCC(=O)N/N=C/c1c(O)ccc2ccccc12
5. Cc1cccc(N2C(=O)C(=O)C(c3nc4ccccc4s3)/C(=N/NC(=S)NN)C2=O)c1C (stereo unspecified)

## Result
1: 27.9 µM; 2: 85.8 µM; 3: 94.6 µM; 4: 44.4 µM; 5: > 100 µM

Provide the reported TGI of each entry below, same order.
1. CC(C)(CCCCC(C)(C)C1NC(=O)N1)C1NC(=O)N1
2. CO[C@@H]1C[C@H]2N3CC[C@@]2(c2cc4c(cc2C3)OCO4)[C@H]2O[C@@H]12
3. CC1=CC(C)C(C)N(CCNS(=O)(=O)c2ccc(C)cc2)c2ccccc21 (stereo unspecified)

## Result
> 10 µM
> 100 µM
19.2 µM

Provide the reported TGI of each entry below, same order.
1. COC(=O)[C@]1(c2cc3ccccc3[nH]2)CC2CN(CC(=O)N(C)OC)C1CC2(OC)OC (stereo partly specified)
2. O=[N+]([O-])/C(C(Cl)=C(Cl)Cl)=C(\Nc1ccccc1)n1nnc2ccccc21
3. O=[N+]([O-])c1ccccc1C=NC12CC3CC(CC(C3)C1)C2
4. CN1CCN(Cc2ccc(NC(=O)c3cncc(C#Cc4cncc5nccnc45)c3)cc2C(F)(F)F)CC1

## Result
["> 100 µM", "> 100 µM", "> 100 µM", "3.22 µM"]

Provide the reported TGI of each entry below, same order.
1. CCCCOCc1cc(CN2CCN(C)CC2)c(O)c2ncccc12
2. N#Cc1c(O)cc(=O)n2c1[nH]c1ccccc12

## Result
["78.9 µM", "> 100 µM"]
